The values you see were collected from patent US20120270844A1.

Please respond with reported pIC50 for every item in the list.
Target: PAK2 (Homo sapiens, UniProt Q13177)
Sequence (Q13177 whole entry): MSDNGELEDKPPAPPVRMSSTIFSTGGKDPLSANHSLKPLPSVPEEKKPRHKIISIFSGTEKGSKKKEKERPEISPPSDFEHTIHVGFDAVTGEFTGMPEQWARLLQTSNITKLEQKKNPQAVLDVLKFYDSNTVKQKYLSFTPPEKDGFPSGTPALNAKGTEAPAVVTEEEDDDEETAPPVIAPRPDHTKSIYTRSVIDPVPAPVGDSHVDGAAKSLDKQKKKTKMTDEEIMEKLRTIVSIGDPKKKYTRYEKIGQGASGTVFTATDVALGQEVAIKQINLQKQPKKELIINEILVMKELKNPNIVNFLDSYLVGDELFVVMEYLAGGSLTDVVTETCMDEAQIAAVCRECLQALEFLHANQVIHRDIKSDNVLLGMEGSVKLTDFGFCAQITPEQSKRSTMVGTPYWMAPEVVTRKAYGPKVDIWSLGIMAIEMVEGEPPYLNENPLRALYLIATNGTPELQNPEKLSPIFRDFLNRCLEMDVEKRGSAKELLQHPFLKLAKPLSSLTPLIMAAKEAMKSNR
Experiment: Z'Lyte fluorescence-based (FRET) PAK kinase assay, PAK2
Type: biochemical
Conditions: Table 1 of Example 100; 75 μM ATP
Description: A fluorescence-based assay format is used to determine IC50 values of test compounds in vitro. Purified PAK kinase is incubated with ATP, and a test compound at various concentrations and a substrate peptide containing two fluorophores. […] Plates are analyzed in a standard fluorescence plate reader (Tecan or equivalent) using an excitation wavelength of 400 nn and emission wavelengths of 445 nm and 520 nm. Inhibition of kinase reaction is determined by emission ratio=emission@445 nm/emission@520 nm […]
pIC50: −log10 of the molar value.

1. CN1CCN(c2ccc(Nc3ncc4ccc(=O)n(C5CCCC5)c4n3)cc2)CC1 [Compound 1]    5.00 to 6.00
2. O=c1c(-c2ccccc2)cc2cnc(Nc3ccc(NC4CCCNC4)cc3)nc2n1Cc1ccccc1C(F)(F)F (centres unmarked) [compound 95]    > 6.00
3. CN1CCN(c2ccc(Nc3ncc4ccc(=O)n(Cc5ccncc5)c4n3)cc2)CC1 [Compound 37]    < 5.00
4. CN1CCN(c2ccc(Nc3ncc4ccc(=O)n(Cc5ccccc5)c4n3)cc2)CC1 [Compound 26]    5.00 to 6.00
5. CN1CCN(c2ccc(Nc3ncc4ccc(=O)n(C5CCC(C)(C)c6ccccc65)c4n3)cc2)CC1 (centres unmarked) [Compound 20]    > 6.00
6. CN1CCN(c2ccc(Nc3ncc4ccc(=O)n(Cc5ccccc5OC(F)(F)F)c4n3)cc2)CC1 [Compound 41]    > 6.00
7. O=c1ccc2cnc(Nc3ccc(N4CCOCC4)cc3)nc2n1C1CCCC1 [Compound 2]    < 5.00

Switching to the query record.
Asked: What value of pIC50 has been reported for the following molecule? O=c1ccc2cnc(Nc3ccc(N4CCNCC4)c(F)c3)nc2n1C1Cc2ccccc2C1 [Compound 21]
Given back: > 6.00

* * *

target: PAK2 (Homo sapiens, UniProt Q13177); test: Z'Lyte fluorescence-based (FRET) PAK kinase assay, PAK2; type: biochemical; details: Table 1 of Example 100; 75 μM ATP
MEASUREMENT KIND: IC50

Working through the 2 compounds below one at a time, give IC50 for each.
1. O=c1ccc2cnc(Nc3ccc(N4CCNCC4)c(F)c3)nc2n1C1CCc2ccccc2C1 (centres unmarked) [Compound 22]
2. CN1CCN(c2ccc(Nc3ncc4ccc(=O)n(Cc5ccccc5Cl)c4n3)cc2)CC1 [Compound 31]

Given back:
["< 1 µM", "< 1 µM"]

Would you mind listing IC50 for each of the following compounds?
1. CN1CCN(c2ccc(Nc3ncc4ccc(=O)n(Cc5cccc(F)c5)c4n3)cc2)CC1 [Compound 27]
2. O=c1ccc2cnc(Nc3ccc(OC4CCNCC4)cc3)nc2n1Cc1ccccc1C(F)(F)F [Compound 12]

Given back:
1: 1 to 10 µM; 2: < 1 µM

Below is a list of compounds. For each, state its recorded IC50.
1. CN1CCN(c2ccc(Nc3ncc4ccc(=O)n(Cc5ccccc5-n5cccn5)c4n3)cc2)CC1 [Compound 53]
2. CN1CCN(c2ccc(Nc3ncc4ccc(=O)n(Cc5ccccn5)c4n3)cc2)CC1 [Compound 36]
3. CC(c1ccccc1)n1c(=O)ccc2cnc(Nc3ccc(N4CCN(C)CC4)cc3)nc21 (centres unmarked) [Compound 48]
4. CN1CCN(c2ccc(Nc3ncc4ccc(=O)n(C5CCCc6ccccc65)c4n3)cc2)CC1 (centres unmarked) [Compound 5]

Given back:
["1 to 10 µM", "> 10 µM", "1 to 10 µM", "1 to 10 µM"]

* * *

biological target: PAK4 (Homo sapiens, UniProt O96013); assay: Z'Lyte fluorescence-based (FRET) PAK kinase assay, PAK4; type: biochemical; conditions: Table 1 of Example 29 (own compound numbering); 5 μM ATP
Sequence (O96013 whole entry): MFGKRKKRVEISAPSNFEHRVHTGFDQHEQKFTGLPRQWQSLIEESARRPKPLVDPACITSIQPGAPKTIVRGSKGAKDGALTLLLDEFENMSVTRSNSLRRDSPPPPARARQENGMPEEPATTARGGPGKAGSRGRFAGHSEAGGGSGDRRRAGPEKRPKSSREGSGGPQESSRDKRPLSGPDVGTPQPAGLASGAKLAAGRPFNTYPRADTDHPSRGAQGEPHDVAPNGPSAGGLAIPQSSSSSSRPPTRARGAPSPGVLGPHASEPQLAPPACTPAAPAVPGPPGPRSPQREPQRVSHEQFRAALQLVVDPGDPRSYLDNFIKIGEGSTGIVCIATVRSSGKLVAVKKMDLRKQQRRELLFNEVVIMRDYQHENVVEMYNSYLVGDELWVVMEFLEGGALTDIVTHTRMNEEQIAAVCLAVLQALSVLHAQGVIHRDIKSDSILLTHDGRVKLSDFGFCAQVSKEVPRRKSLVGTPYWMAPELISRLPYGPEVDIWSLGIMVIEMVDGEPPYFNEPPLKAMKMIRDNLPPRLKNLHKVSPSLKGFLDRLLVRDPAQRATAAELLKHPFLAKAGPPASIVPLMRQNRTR
MEASUREMENT KIND: IC50

Items follow; give IC50 for each.
1. CN1CCN(c2ccc(Nc3ncc4ccc(=O)n(Cc5ccc(F)cc5)c4n3)cc2)CC1
2. CSc1cccc(F)c1Cn1c(=O)ccc2cnc(Nc3ccc(N4CCN(C)CC4)cc3)nc21
3. CN1CCN(c2ccc(Nc3ncc4ccc(=O)n(C5Cc6ccccc6C5)c4n3)cc2)CC1
4. CN1CCN(c2ccc(Nc3ncc4ccc(=O)n(C5CCCc6ccccc65)c4n3)cc2)CC1 (stereo not drawn)

Given back:
1: > 10000 nM; 2: < 1000 nM; 3: < 1000 nM; 4: 1000 to 10000 nM

For every record below, what is its IC50?
1. CN1CCN(c2ccc(Nc3ncc4ccc(=O)n(Cc5ccccc5-n5cccn5)c4n3)cc2)CC1
2. CN1CCN(c2ccc(Nc3nccc(-c4ccc(O)nc4)n3)cc2)CC1

Given back:
1. 1000 to 10000 nM
2. > 10000 nM

* * *

Biological target: PAK1 (Homo sapiens, UniProt Q13153)
Sequence (Q13153 whole entry): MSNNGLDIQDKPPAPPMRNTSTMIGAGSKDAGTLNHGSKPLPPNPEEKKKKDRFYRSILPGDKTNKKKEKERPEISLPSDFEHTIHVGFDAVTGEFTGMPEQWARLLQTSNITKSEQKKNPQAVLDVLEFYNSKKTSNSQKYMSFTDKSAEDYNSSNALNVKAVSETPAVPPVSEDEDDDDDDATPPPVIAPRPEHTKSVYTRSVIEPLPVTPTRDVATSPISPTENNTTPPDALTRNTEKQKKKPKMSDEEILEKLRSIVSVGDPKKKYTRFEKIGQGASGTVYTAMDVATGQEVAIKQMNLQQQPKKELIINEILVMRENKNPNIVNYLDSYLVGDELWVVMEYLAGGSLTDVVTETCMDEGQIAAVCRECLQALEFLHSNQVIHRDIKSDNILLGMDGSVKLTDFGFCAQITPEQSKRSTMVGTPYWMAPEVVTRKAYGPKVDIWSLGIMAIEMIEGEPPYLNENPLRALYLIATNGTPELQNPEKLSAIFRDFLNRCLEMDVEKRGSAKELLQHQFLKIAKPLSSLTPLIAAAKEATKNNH
Assay: Z'Lyte fluorescence-based (FRET) PAK kinase assay, PAK1
Format: biochemical
Conditions: Table 1 of Example 100; 50 μM ATP
Description: A fluorescence-based assay format is used to determine IC50 values of test compounds in vitro. Purified PAK kinase is incubated with ATP, and a test compound at various concentrations and a substrate peptide containing two fluorophores. […] Plates are analyzed in a standard fluorescence plate reader (Tecan or equivalent) using an excitation wavelength of 400 nn and emission wavelengths of 445 nm and 520 nm. Inhibition of kinase reaction is determined by emission ratio=emission@445 nm/emission@520 nm […]
pIC50: −log10 of the molar value.
MEASUREMENT KIND: pIC50

Example entries and their recorded answers appear below.
1) CN(C)CC(c1ccccc1)n1c(=O)ccc2cnc(Nc3ccc(N4CCOCC4)cc3)nc21 (stereo not shown)    < 5.00
2) CN1CCN(c2ccc(Nc3ncc4ccc(=O)n(CC(=O)c5ccccc5)c4n3)cc2)CC1    5.00 to 6.00
3) CN(C)c1ccc(Nc2ncc3ccc(=O)n(C4CCCC4)c3n2)cc1    < 5.00

Could you now consider this next compound?
Asked: Could you tell me which pIC50 is on file for CN(C)CC(c1ccccc1)n1c(=O)ccc2cnc(Nc3ccc(N4CCN(C)CC4)cc3)nc21 (stereo not shown) ?
Given back: < 5.00

* * *

Consider the following compounds; for each one, report its pIC50.
biological target: PAK1 (Homo sapiens); assay: Z'Lyte fluorescence-based (FRET) PAK kinase assay, PAK1; assay type: biochemical; settings: Table 1 of Example 29 (own compound numbering); 50 μM ATP
pIC50: −log10 of the molar value.

1. O=c1ccc2cnc(Nc3ccc(N4CCNCC4)c(F)c3)nc2n1Cc1c(Cl)cccc1C1CC1 [Compound 137]    > 6.00
2. CN1CCN(c2ccc(Nc3ncc4ccc(=O)n(Cc5c(F)cccc5C(F)(F)F)c4n3)cc2)CC1 [Compound 112]    > 6.00
3. COc1ccc(F)cc1Cn1c(=O)ccc2cnc(Nc3ccc(N4CCN(C)CC4)cc3)nc21 [Compound 108]    > 6.00
4. CN1CCN(c2ccc(Nc3ncc4ccc(=O)n(Cc5ccccc5Cl)c4n3)cc2)CC1 [compound 85]    > 6.00
5. O=c1ccc2cnc(Nc3ccc(NC4CCNCC4)cc3)nc2n1Cc1ccccc1C(F)(F)F [compound 64]    > 6.00
6. CN1CCN(c2ccc(Nc3ncc4ccc(=O)n(Cc5ccc(F)cc5)c4n3)cc2)CC1 [compound 82]    5.00 to 6.00
7. CN1CCN(c2ccc(Nc3ncc4ccc(=O)n(CCc5ccccc5)c4n3)cc2)CC1 [Compound 103]    > 6.00

Note: attention shifts to another entry.
Asked: GET /values?readout=pIC50&system=PAK1 (Homo sapiens)&item= Cc1cc(F)ccc1Cn1c(=O)ccc2cnc(Nc3ccc(N4CCN(C)CC4)cc3)nc21 [compound 99]
Given back: 5.00 to 6.00

* * *

target: PAK3 (Homo sapiens); assay: Z'Lyte fluorescence-based (FRET) PAK kinase assay, PAK3; assay type: biochemical; settings: Table 1 of Example 29 (own compound numbering); 100 μM ATP
Sequence (O75914 whole entry): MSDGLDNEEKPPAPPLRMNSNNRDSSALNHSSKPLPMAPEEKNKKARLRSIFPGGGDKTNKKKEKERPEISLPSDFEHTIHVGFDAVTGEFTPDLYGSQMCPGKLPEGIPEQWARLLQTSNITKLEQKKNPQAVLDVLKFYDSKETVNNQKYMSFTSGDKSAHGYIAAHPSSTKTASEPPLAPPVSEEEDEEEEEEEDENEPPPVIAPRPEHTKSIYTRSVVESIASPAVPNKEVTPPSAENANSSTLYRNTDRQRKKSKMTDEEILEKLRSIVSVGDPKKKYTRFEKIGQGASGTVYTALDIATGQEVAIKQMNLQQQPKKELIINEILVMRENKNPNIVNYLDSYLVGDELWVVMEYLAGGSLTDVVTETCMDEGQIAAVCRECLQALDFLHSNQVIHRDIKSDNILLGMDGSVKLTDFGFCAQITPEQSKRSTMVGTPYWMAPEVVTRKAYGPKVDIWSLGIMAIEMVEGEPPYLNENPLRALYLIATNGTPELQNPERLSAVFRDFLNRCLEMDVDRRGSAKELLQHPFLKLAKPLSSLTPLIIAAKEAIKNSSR
Assign IC50 to each entry below.

1. CN1CCN(c2ccc(Nc3ncc4ccc(=O)n(Cc5c(F)cccc5[S+](C)[O-])c4n3)cc2)CC1 (stereo not drawn)    < 1000 nM
2. Cc1ccccc1Cn1c(=O)ccc2cnc(Nc3ccc(N4CCN(C)CC4)cc3)nc21    < 1000 nM
3. COc1ccc(F)cc1Cn1c(=O)ccc2cnc(Nc3ccc(N4CCN(C)CC4)cc3)nc21    1000 to 10000 nM
4. O=c1ccc2cnc(Nc3ccc(N4CCNCC4)c(F)c3)nc2n1Cc1ccccc1-c1ncno1    1000 to 10000 nM
5. CSc1cccc(F)c1Cn1c(=O)ccc2cnc(Nc3ccc(N4CCN(C)CC4)cc3)nc21    < 1000 nM

Give measured IC50 for every item shown.
1. CN1CCN(c2ccc(Nc3ncc4ccc(=O)n(Cc5c(O)cccc5Cl)c4n3)cc2)CC1
2. CC(c1ccccc1)n1c(=O)ccc2cnc(Nc3ccc(N4CCN(C)CC4)cc3)nc21 (stereo not drawn)
3. O=c1c(-c2ccccc2)cc2cnc(Nc3ccc(N4CCNCC4)cc3)nc2n1Cc1ccccc1C(F)(F)F
4. Cc1cc(Nc2nccc(-c3ccc(NCCN)nc3)n2)ccc1N1CCN(C)CC1
5. CN1CCN(c2ccc(Nc3ncc4ccc(=O)n(CC(=O)c5ccccc5)c4n3)cc2)CC1
6. CN1CCN(c2ccc(Nc3ncc4ccc(=O)n(Cc5ccccc5-n5cccn5)c4n3)cc2)CC1
7. O=c1c(-c2ccccc2)cc2cnc(Nc3ccc(NC4CCCNC4)cc3)nc2n1Cc1ccccc1C(F)(F)F (stereo not drawn)

Given back:
1: 1000 to 10000 nM; 2: > 10000 nM; 3: < 1000 nM; 4: 1000 to 10000 nM; 5: 1000 to 10000 nM; 6: 1000 to 10000 nM; 7: < 1000 nM

List the reported IC50 of each molecule below.
1. CN1CCN(c2ccc(Nc3ncc4ccc(=O)n(Cc5ccccc5-c5ncno5)c4n3)cc2)CC1
2. Cc1cccc(O)c1Cn1c(=O)ccc2cnc(Nc3ccc(N4CCN(C)CC4)cc3)nc21
3. CN1CCN(c2ccc(Nc3ncc4ccc(=O)n(CCc5ccccc5)c4n3)cc2)CC1
4. O=c1ccc2cnc(Nc3ccc(N4CCNCC4)c(F)c3)nc2n1Cc1c(Cl)cccc1C1CC1
5. CN1CCCC(Nc2ccc(Nc3ncc4ccc(=O)n(Cc5ccccc5C(F)(F)F)c4n3)cc2)C1 (stereo not drawn)
6. CN1CCN(c2ccc(Nc3ncc4ccc(=O)n(Cc5c(F)cccc5C(F)(F)F)c4n3)cc2)CC1
7. O=c1ccc2cnc(Nc3ccc(N4CCNCC4)cc3)nc2n1C1CCCc2ccccc21 (stereo not drawn)
8. Cc1cccnc1Cn1c(=O)ccc2cnc(Nc3ccc(N4CCN(C)CC4)cc3)nc21

Given back:
1: 1000 to 10000 nM; 2: 1000 to 10000 nM; 3: 1000 to 10000 nM; 4: < 1000 nM; 5: < 1000 nM; 6: < 1000 nM; 7: 1000 to 10000 nM; 8: > 10000 nM

Asked: For the molecule shown here, CN1CCN(c2ccc(Nc3ncc4ccc(=O)n(Cc5ccccc5OC(F)(F)F)c4n3)cc2)CC1 , give the reported IC50.
Given back: < 1000 nM
